assay: Stability in human liver microsomes assessed as half life at 0.5 uM incubated up to 45 min in the presence of NADPH regenerating system by LC MS/MS analysis; format: ADME, Microsome
property.measured: half-life at 0.5 µM (min)
Report as a plain number; the unit min is understood.

N#Cc1ccc2c(c1)CC[C@@H]2Nc1ccc2[nH]nc(-c3ccoc3)c2c1 :: 25
Cc1n[nH]c2ccc(O[C@H]3CCCc4cc(C#N)ccc43)cc12 :: 35

If you can, please state the reported half-life at 0.5 µM value of N#Cc1ccc2c(c1)CC[C@@H]2Oc1ccc2[nH]nc(-c3cnco3)c2c1 .
61

If you can, please state the reported half-life at 0.5 µM value of N#Cc1ccc2c(c1)CCC[C@@H]2Oc1ccc2[nH]nc(-c3cnco3)c2c1 .
28

---

tested on: MDR1 (P-gp); test: Efflux ratio of permeability across basolateral to apical side over apical to basolateral side in dog MDCKII-MDR1 cells; assay type: ADME, cell-based, Canis lupus familiaris; settings: MDCK-MDR1
property.measured: efflux ratio
// no unit string in output, number only

Example molecules with recorded efflux ratio:
Cn1ncc2cc(C(=O)Nc3ccc4[nH]nc(-c5ccoc5)c4c3)ccc21 :: 9.2
N#Cc1ccc(C(=O)Nc2ccc3[nH]nc(-c4ccoc4)c3c2)cc1 :: 1.9
Cc1n[nH]c2ccc(O[C@H]3CCCc4cc(C#N)ccc43)cc12 :: 1.3
N#Cc1ccc2c(c1)CC[C@@H]2Oc1ccc2[nH]nc(-c3cnco3)c2c1 :: 2.2
N#Cc1ccc2c(c1)CCC[C@@H]2Oc1ccc2[nH]nc(-c3cnco3)c2c1 :: 1.7

We now examine a further molecule.
If you can, please state the reported efflux ratio value of N#Cc1ccc2c(c1)CC[C@@H]2Nc1ccc2[nH]nc(-c3ccoc3)c2c1 .
1.8

---

Each entry below carries its recorded half-life at 0.5 µM.
assay: Stability in rat liver microsomes assessed as half life at 0.5 uM incubated up to 45 min in the presence of NADPH regenerating system by LC MS/MS analysis; assay type: ADME, Microsome
Report as a plain number; the unit min is understood.

Example compounds with recorded half-life at 0.5 µM:
Cc1n[nH]c2ccc(O[C@H]3CCCc4cc(C#N)ccc43)cc12 :: 18
N#Cc1ccc2c(c1)CCC[C@@H]2Oc1ccc2[nH]nc(-c3cnco3)c2c1 :: 42

If you can, please state the reported half-life at 0.5 µM value of N#Cc1ccc2c(c1)CC[C@@H]2Oc1ccc2[nH]nc(-c3cnco3)c2c1 .
53

If you can, please state the reported half-life at 0.5 µM value of N#Cc1ccc2c(c1)CC[C@@H]2Nc1ccc2[nH]nc(-c3ccoc3)c2c1 .
54

---

target: Leucine-rich repeat serine/threonine-protein kinase 2 (Homo sapiens, UniProt Q5S007, G2019S); test: Inhibition of LRRK2 G2019S mutant (unknown origin) using LRRKtide as substrate pre-incubated for 15 min and measured after 1 hrs by HTRF assay
Sequence (Q5S007 whole entry G2019S): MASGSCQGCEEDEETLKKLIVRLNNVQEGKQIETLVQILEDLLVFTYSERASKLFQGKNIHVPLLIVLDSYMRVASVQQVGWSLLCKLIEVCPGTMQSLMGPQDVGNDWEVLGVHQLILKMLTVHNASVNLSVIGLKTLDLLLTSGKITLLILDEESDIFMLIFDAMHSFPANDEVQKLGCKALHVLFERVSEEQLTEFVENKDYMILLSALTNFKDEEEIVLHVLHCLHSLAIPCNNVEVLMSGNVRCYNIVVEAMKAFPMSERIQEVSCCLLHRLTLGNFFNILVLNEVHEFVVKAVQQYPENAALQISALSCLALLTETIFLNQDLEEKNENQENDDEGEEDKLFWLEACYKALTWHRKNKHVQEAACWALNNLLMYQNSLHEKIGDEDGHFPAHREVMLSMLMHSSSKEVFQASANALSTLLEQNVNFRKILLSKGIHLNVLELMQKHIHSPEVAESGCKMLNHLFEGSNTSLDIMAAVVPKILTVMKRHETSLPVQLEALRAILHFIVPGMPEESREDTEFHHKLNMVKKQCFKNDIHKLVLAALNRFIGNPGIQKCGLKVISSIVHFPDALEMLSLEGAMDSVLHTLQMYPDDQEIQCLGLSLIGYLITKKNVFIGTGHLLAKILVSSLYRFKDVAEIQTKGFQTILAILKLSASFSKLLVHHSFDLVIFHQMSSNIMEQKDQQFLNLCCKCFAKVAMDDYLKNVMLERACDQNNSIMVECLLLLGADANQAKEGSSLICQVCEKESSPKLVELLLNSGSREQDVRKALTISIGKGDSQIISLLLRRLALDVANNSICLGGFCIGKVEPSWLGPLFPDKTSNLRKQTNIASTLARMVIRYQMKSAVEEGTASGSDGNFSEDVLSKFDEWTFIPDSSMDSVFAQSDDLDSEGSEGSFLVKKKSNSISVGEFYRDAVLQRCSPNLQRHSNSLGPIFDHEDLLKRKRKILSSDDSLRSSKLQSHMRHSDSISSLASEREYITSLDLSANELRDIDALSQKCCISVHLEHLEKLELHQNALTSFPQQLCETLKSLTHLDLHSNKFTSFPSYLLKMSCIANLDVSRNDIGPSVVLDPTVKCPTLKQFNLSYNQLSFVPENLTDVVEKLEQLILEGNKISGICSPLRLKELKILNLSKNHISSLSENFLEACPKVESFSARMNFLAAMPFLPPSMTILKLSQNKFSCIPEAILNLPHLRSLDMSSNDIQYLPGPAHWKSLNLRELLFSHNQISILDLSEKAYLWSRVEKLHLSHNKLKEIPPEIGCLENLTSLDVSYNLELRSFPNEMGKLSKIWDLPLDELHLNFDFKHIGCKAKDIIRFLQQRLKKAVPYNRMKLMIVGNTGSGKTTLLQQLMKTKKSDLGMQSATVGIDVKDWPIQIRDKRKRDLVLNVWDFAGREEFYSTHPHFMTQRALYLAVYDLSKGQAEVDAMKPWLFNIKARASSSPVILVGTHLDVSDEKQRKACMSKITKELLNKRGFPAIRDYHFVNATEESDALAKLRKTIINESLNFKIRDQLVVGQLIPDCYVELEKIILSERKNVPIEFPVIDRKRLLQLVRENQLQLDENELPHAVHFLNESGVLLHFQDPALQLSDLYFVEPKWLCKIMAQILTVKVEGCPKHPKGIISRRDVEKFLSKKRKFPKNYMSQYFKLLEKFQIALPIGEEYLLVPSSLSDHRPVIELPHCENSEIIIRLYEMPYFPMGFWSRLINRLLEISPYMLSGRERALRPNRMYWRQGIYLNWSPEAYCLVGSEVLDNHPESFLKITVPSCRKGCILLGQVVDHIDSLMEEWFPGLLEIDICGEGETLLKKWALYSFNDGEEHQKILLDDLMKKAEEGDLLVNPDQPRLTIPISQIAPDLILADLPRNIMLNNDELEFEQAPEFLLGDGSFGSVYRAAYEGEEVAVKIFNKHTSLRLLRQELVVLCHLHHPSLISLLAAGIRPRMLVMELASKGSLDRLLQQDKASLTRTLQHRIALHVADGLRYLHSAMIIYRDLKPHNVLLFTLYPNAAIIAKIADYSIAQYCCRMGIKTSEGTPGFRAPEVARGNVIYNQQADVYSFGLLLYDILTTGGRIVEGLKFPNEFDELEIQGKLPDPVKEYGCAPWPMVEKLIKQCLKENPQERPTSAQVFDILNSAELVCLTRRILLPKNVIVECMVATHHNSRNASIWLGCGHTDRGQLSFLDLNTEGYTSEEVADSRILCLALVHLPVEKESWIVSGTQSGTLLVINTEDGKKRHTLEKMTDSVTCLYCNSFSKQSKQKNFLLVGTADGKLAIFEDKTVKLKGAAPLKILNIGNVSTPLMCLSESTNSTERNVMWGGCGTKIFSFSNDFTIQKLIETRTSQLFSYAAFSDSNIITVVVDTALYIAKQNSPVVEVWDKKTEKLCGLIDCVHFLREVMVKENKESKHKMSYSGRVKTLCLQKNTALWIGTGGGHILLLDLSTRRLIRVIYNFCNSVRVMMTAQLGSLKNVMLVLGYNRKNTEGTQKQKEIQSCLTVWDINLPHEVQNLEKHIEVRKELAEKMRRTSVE
property.measured: log10 IC50 (log10 of the value in nM)
Remember, log10 of IC50, in nM.

Example compounds with recorded log10 IC50:
N#Cc1ccc2c(c1)CCC[C@@H]2Oc1ccc2[nH]nc(-c3ccnc(N4CCOCC4)c3)c2c1 :: 0.15
CC1=C(C(=O)Nc2ccc3[nH]nc(-c4ccccc4)c3c2)C(C)(C)n2nnnc2N1C :: 0.48
CS(=O)(=O)c1ccc(C(=O)Nc2ccc3[nH]nc(-c4ccoc4)c3c2)cc1 :: 1.69

If you can, please state the reported log10 IC50 value of N#Cc1ccc2c(c1)CCN(c1ccc3[nH]nc(C4CC4)c3c1)C2=O .
3.74

If you can, please state the reported log10 IC50 value of N#Cc1ccc2c(c1)CC[C@H]2Nc1ccc2[nH]nc(-c3ccoc3)c2c1 .
1.80

If you can, please state the reported log10 IC50 value of O=C(Nc1ccc2[nH]nc(-c3ccoc3)c2c1)c1nc2cnccc2s1 .
1.87
